Each record here notes measured IC50.
# subject of test: TANK binding kinase (TBK1) (Homo sapiens (Human), UniProt Q9UHD2)
# Sequence (Q9UHD2 whole entry): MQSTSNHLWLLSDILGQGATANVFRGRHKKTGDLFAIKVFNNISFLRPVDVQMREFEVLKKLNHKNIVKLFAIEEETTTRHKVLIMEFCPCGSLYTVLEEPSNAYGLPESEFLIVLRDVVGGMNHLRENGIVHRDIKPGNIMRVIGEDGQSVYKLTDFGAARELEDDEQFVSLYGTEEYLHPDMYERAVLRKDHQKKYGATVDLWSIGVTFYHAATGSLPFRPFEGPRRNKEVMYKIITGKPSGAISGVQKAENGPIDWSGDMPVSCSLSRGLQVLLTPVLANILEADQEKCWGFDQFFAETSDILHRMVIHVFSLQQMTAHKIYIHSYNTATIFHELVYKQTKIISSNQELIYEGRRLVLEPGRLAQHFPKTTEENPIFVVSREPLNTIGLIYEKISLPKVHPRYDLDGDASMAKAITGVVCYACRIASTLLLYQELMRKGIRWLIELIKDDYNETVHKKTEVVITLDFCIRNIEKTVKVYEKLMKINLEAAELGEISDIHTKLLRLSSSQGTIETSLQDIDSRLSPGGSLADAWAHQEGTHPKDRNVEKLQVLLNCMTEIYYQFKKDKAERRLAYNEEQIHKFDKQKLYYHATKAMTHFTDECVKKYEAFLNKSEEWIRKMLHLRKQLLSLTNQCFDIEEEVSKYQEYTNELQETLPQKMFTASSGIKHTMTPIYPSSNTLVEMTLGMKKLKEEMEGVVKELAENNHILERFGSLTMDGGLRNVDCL
Numeric answer only, unit nM assumed.

compound: COCCn1cc(Nc2cc(-c3ccc(OCC4CC4)c(C#N)c3)ccn2)cn1
subject of test: TANK binding kinase (TBK1) (Homo sapiens (Human), UniProt Q9UHD2)
IC50 [nM]: 220

compound: N#Cc1cc(-c2ccnc(Nc3ncccn3)c2)ccc1OC1CCOCC1
subject of test: TANK binding kinase (TBK1) (Homo sapiens (Human), UniProt Q9UHD2)
IC50 [nM]: 670

compound: N#Cc1cc(-c2ccnc(Nc3cncc(N4CCOCC4)n3)c2)ccc1OC1CCOCC1
subject of test: TANK binding kinase (TBK1) (Homo sapiens (Human), UniProt Q9UHD2)
IC50 [nM]: 330

Now for the compound whose IC50 we want.
QUERY: # IC50 lookup, item `N#Cc1cc(-c2ccnc(Nc3cnn([C@H]4CC[C@@H](O)CC4)c3)n2)ccc1OCC1CCC1`
RESULT: 11

* * *

# subject of test: TANK binding kinase (TBK1) (Homo sapiens (Human), UniProt Q9UHD2)
pIC50: −log10 of the molar value.
Where pIC50 equals or exceeds 7, the correct label is class 1; where it does not, the label is class 0.

Below are worked cases with known answers.
molecule: N#Cc1cc(-c2ccnc(Nc3cc(CO)ccn3)c2)ccc1OC1CCOCC1 [Compound A18]
label class: class 1
--
molecule: N#Cc1cc(-c2ccnc(Nc3ccc4oc(C(N)=O)cc4c3)n2)ccc1OC1CCOCC1 [Compound A42]
label class: class 1

As a next step, examine the molecule that follows.
QUERY: Is pIC50 for CC(=O)N1CCC(COc2ccc(-c3ccnc(Nc4ccc(N5CCOCC5)cn4)c3)cc2C#N)CC1 [Compound A117] at or above 7?
RESULT: class 0

* * *

The listing below reports pIC50 for compounds tested on TANK binding kinase (TBK1) (Homo sapiens (Human)).
// pIC50: -log10(molar conc.)

// solved cases for pIC50 follow
compound: COCCn1cc(Nc2cc(-c3ccc(OCC4CCC4)c(C#N)c3)ccn2)cn1 [Compound A110]
pIC50: 6.31

compound: N#Cc1cc(-c2ccnc(Nc3cnn(C[C@H]4C[C@@H]4CO)c3)n2)ccc1OCC1CCC1 [Compound A95]
pIC50: 8.00

compound: N#Cc1cc(-c2ccnc(Nc3cnn(CCN4CCOCC4)c3)c2)ccc1OC1CCOCC1 [Compound A22]
pIC50: 7.00

compound: N#Cc1cc(-c2ccnc(Nc3ccc(-c4cccnc4)cn3)c2)ccc1OC1CCOCC1 [Compound A3]
pIC50: 6.59

compound: N#Cc1cc(-c2ccnc(Nc3ccc(-c4cn[nH]c4)cn3)c2)ccc1OC1CCOCC1 [Compound A9]
pIC50: 6.92

QUERY: What pIC50 appears in the records for this compound with TANK binding kinase (TBK1) (Homo sapiens (Human))? N#Cc1cc(-c2ccnc(Nc3cc(CO)ccn3)n2)ccc1OC1CCOCC1 [Compound A70]
RESULT: 6.74

QUERY: What pIC50 appears in the records for this compound with TANK binding kinase (TBK1) (Homo sapiens (Human))? N#Cc1cc(-c2ccnc(Nc3cnn(CCN4CCOCC4)c3)n2)ccc1OC1CCOCC1 [Compound A39]
RESULT: 7.80

QUERY: What pIC50 appears in the records for this compound with TANK binding kinase (TBK1) (Homo sapiens (Human))? N#Cc1cc(-c2ccnc(Nc3cnn(CCC4CCN(C(=O)CN)CC4)c3)c2)ccc1OC1CCOCC1 [Compound A30]
RESULT: 7.38

Reference source: patent US8969335B2
